- target desc: BRAF^V600E protein (Homo sapiens, UniProt P15056, V600E)
- Sequence (P15056 whole entry V600E): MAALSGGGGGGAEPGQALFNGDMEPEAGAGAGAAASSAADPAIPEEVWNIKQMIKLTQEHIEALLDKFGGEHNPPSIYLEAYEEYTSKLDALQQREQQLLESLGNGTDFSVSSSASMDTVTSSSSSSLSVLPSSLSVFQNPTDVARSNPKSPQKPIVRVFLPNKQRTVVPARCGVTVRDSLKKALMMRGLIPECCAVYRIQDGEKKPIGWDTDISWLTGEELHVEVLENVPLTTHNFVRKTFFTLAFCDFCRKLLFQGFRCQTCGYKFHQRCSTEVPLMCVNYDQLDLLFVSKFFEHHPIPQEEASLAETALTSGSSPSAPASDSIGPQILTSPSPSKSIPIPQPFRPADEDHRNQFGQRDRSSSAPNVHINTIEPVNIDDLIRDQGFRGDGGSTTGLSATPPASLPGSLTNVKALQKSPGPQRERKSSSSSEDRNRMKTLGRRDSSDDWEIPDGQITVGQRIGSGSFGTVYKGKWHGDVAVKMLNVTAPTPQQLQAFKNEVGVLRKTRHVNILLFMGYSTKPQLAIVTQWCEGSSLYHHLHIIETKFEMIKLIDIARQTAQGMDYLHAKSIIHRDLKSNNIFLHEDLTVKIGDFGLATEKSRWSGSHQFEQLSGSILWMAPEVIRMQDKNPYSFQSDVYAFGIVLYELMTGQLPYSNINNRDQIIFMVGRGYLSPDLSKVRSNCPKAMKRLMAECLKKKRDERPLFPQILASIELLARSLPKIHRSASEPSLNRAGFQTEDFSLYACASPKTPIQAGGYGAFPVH
- protocol notes: HiBiT cellular BRAF V600E degradation assay
- Format: cell-based
- assay context: A375.10 cells (HiBiT tag knocked in at N-terminal of BRAF V600E), 24 h incubation; concentration at which 50% of total cellular BRAF V600E is degraded
So basically, if DC50 comes in under 4 nM it's Condition met, and if it's 4 nM or more it's Condition not met.

stdin: In plain terms, does CCN(C)S(=O)(=O)Nc1ccc(F)c(C(=O)c2c[nH]c3ncc(-c4cnc(N5CCN(C(=O)CC6CCC(c7ccc(NC8CCC(=O)NC8=O)cc7)CC6)CC5)nc4)cc23)c1F (single isomer, unassigned) [Example 35] come in under 4 nM for DC50?
stdout: Condition not met

stdin: In plain terms, does CCN(C)S(=O)(=O)Nc1ccc(F)c(C(=O)c2c[nH]c3ncc(-c4cnc(N5CCN(C(=O)CN6CCC(c7ccc8c(C9CCC(=O)NC9=O)nn(C)c8c7)CC6)CC5)nc4)cc23)c1F (centres unmarked) [Example 27] come in under 4 nM for DC50?
stdout: Condition met

stdin: In plain terms, does CCN(C)S(=O)(=O)Nc1ccc(F)c(C(=O)c2c[nH]c3ncc(-c4ccc(N5CCC(NC(=O)CN6CCC(c7ccc(OC8CCC(=O)NC8=O)cn7)CC6)CC5)cc4)cc23)c1F (centres unmarked) [Example A64] come in under 4 nM for DC50?
stdout: Condition not met

stdin: In plain terms, does CCN(C)S(=O)(=O)Nc1ccc(F)c(C(=O)c2c[nH]c3ncc(-c4ccc(N5C[C@H]6CC[C@@H](C5)N6C(=O)CN5CCC(c6ccc(NC7CCC(=O)NC7=O)cc6)CC5)nc4)cc23)c1F (mixture of isomers) [Example A71] come in under 4 nM for DC50?
stdout: Condition not met

###

- target desc: BRAF^V600E protein (Homo sapiens, UniProt P15056, V600E)
- protocol notes: HiBiT cellular BRAF V600E degradation assay
- Assay type: cell-based
- assay context: A375.10 cells, 24 h incubation; Emax = amount of residual protein remaining in the cell after compound treatment
- From the text: DMEM no-phenol red medium supplemented with L-glutamine was purchased from (Corning). Fetal bovine serum (FBS) was purchased from Gibco (Grand Island, NY, USA). Nano-Glo® HiBiT Lytic Assay Buffer & Reagents were purchased from Promega (Madison, WI, USA). […] Prior to the assay, the A375.10 cell line is maintained in DMEM no-phenol red medium supplemented with 10% fetal bovine serum (FBS). […] Finally, HiBiT luminescence signal was acquired on EnVision™ Multilabel Reader (PerkinElmer, Santa Clara, CA, USA). […]
compounds and their reported HiBit 24 h Emax

Example entries and their recorded answers appear below.
{"compound": "CCN(C)S(=O)(=O)Nc1ccc(F)c(C(=O)c2c[nH]c3ncc(-c4cnc(N5CCN(C(=O)CN6CCC(c7ccc(N8CCC(=O)NC8=O)cc7)CC6)CC5)nc4)cc23)c1F", "target desc": "BRAF^V600E protein (Homo sapiens, UniProt P15056, V600E)", "HiBit 24 h Emax": "7.88%"}
{"compound": "CCN(C)S(=O)(=O)Nc1ccc(F)c(C(=O)c2c[nH]c3ncc(-c4cnc(N5CCN(C(=O)CN6CCC(c7ccc(NC8CCC(=O)NC8=O)cc7)CC6)CC5)nc4)cc23)c1F (stereo not drawn)", "target desc": "BRAF^V600E protein (Homo sapiens, UniProt P15056, V600E)", "HiBit 24 h Emax": "7.93%"}

# ---- query compound ----
stdin: Give the measured HiBit 24 h Emax of CCN(C)S(=O)(=O)Nc1ccc(F)c(C(=O)c2c[nH]c3ncc(-c4ccc(CN5CCN(C(=O)CN6CCN(c7ccc(NC8CCC(=O)NC8=O)cc7)CC6)CC5)cc4)cc23)c1F.O=C(O)C(F)(F)F (stereo not drawn) .
stdout: 13%
